// reported EC50 for each item listed
# assayed-system: RNA-binding protein pos-1 (Caenorhabditis elegans)
# Sequence (G5EF15 whole entry): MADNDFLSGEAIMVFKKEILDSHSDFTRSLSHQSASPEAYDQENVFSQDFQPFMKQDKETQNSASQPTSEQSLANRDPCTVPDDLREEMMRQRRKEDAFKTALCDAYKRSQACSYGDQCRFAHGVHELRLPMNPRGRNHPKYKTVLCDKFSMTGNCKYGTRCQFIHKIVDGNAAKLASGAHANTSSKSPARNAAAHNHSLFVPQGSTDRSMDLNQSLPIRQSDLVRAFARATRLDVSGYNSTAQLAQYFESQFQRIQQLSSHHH
# assay-explanation: disruptors of C. elegans POS-1 RNA interaction – biochemical, fluorescence polarization, dose response (AID 1964);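 also: purified POS-1 fused to maltose binding protein made in E. coli; potency of compounds blocking POS-1 binding to fluorescent RNA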
The source made the active and inactive calls. Rule as the data show it: actives have a measured EC50 and inactives only a lower limit.

>  <compound>
Cc1nnc(O)nc1N/N=C/c1ccc(O)c([N+](=O)[O-])c1

>  <EC50>
169 µM (active)

$$$$
>  <compound>
CC(=O)c1ccc(-c2ccc(/C=C(/Sc3n[nH]c(C)n3)C(=O)O)o2)cc1

>  <EC50>
21.6 µM (active)

$$$$
>  <compound>
Cc1ccc(/N=C/c2cc(Br)cc(Cl)c2O)cc1

>  <EC50>
> 300 µM (not active)

$$$$
>  <compound>
CCOc1cc(/C=C2\C(=O)NN(c3ccccc3)C2=O)cc([N+](=O)[O-])c1O

>  <EC50>
129 µM (active)

$$$$
>  <compound>
CC1(C)Cc2c(cnn2-c2cccc(F)c2)C(NC(=O)CSc2ccccn2)C1 (stereo unspecified)

>  <EC50>
> 300 µM (not active)

$$$$
>  <compound>
COC(=O)CNC(=O)C1Nc2ccc(OC(F)(F)F)cc2C2C=CCC12 (stereo unspecified)

>  <EC50>
> 300 µM (not active)

$$$$
>  <compound>
Cc1cccc(N=Nc2c(O)[nH]c3ccc(Br)cc23)c1

>  <EC50>
68.3 µM (active)

$$$$
>  <compound>
COc1ncnc2c1N=C1CC(C)(C)CC(NCCC(=O)O)=C1S2

>  <EC50>
> 300 µM (not active)

$$$$
>  <compound>
Cc1n[nH]c(S/C(C(=O)O)=C2/C(=O)Nc3ccccc32)n1

>  <EC50>
> 300 µM (not active)

$$$$
>  <compound>
Cc1ccc(Nc2ccc([N+](=O)[O-])ccc2=O)cc1

>  <EC50>
> 300 µM (not active)

$$$$
>  <compound>
COC(=O)c1cc2n3ccccc3c(C)c(-c3ccccc3)c-2c1C(=O)OC

>  <EC50>
23.6 µM (active)

$$$$

----------
// reported EC50 for each item listed
# assay-explanation: NIH3T3 cell viability loss – ATP luminescence, mouse fibroblasts, counter-screen, dose response (AID 2010);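 also: cells exposed to compound for about 90 hours before reading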
# Format: functional, cell-based
# experimental-context: NIH3T3
Calls of active or inactive are those of the source. No stated cut-off is given here; in the data, actives have a measured EC50 and inactives only a lower limit.
measured-parameter: EC50

>  <molecule>
CN(c1ccccc1)S(=O)(=O)c1ccc(C(=O)Nc2ccncc2)cc1

>  <measured-parameter>
EC50

>  <observed-value>
> 60 µM (not active)

$$$$
>  <molecule>
COc1ccc(Nc2nnc(-c3ccc(O)cc3)c3ccccc23)cc1

>  <measured-parameter>
EC50

>  <observed-value>
> 60 µM (not active)

$$$$
>  <molecule>
CCCNCC1C(Oc2ccc(Cl)cc2Cl)C(=O)N1c1cccc(C)c1C (stereo not given)

>  <measured-parameter>
EC50

>  <observed-value>
> 60 µM (not active)

$$$$
>  <molecule>
Cc1nn(Cc2ccc(Cl)cc2)c(C)c1NC(=O)c1cc(-c2ccc3c(c2)OCO3)on1

>  <measured-parameter>
EC50

>  <observed-value>
3.87 µM (active)

$$$$
>  <molecule>
CCNC(=S)N/N=C/c1cccc(OCc2c(F)cccc2Cl)c1

>  <measured-parameter>
EC50

>  <observed-value>
> 30 µM (not active)

$$$$
